- TARGET_OF_ASSAY: FLK-1 receptor (Mus musculus)
- Construct: expressed in transfected cells; host or cells: NIH3T3 C7#3
- Sequence (P35918 20-1345): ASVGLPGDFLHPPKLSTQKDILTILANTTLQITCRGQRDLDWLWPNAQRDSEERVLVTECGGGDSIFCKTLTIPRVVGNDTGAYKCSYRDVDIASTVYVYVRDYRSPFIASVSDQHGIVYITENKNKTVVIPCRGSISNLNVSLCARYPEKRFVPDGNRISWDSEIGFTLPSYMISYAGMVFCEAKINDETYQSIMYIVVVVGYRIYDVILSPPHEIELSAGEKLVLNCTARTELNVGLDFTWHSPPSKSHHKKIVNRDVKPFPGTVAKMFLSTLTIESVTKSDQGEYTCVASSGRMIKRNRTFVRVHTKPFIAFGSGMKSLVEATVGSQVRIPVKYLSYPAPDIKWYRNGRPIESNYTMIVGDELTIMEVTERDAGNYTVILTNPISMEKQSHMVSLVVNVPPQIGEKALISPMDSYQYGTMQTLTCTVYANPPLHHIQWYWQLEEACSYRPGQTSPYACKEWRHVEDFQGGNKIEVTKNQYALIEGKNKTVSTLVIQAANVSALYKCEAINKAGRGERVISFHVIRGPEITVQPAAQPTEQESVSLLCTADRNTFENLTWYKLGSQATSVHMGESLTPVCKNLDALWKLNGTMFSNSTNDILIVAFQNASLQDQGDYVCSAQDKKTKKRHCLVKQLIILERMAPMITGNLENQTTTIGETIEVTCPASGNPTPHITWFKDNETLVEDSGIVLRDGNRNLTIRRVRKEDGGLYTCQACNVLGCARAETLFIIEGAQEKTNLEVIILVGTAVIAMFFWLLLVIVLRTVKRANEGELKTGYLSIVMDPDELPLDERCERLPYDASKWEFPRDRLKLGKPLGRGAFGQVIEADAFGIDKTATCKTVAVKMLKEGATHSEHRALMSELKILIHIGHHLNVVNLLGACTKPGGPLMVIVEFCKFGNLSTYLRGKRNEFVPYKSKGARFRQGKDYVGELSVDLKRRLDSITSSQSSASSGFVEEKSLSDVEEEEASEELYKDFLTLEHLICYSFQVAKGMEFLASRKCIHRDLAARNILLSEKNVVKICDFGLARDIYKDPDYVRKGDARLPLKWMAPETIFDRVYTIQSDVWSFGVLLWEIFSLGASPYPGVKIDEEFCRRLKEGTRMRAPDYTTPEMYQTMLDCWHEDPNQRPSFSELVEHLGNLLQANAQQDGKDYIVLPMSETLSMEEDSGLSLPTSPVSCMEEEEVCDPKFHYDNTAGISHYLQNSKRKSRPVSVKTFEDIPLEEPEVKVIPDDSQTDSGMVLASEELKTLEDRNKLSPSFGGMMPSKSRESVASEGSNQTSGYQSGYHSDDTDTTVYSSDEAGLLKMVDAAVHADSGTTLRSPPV
- TEST_NAME: FLK-1 ELISA (kinase activity of the FLK-1 receptor in FLK-1/NIH3T3 cells, VEGF stimulated)
- Format: cell-based
- Design: concentration or dose not given beside the values
QUANTITY_NAME: Fik Kinase %Inhibition (%)

STRUCTURE: CC(=O)Oc1ccc(C=C2C(=O)Nc3ccc(S(=O)(=O)N4CCOCC4)cc32)cc1OC(C)=O
QUANTITY_NAME: Fik Kinase %Inhibition
RESULT_VALUE: -6.4
//
STRUCTURE: Cc1cn(C)cc1C=C1C(=O)Nc2ccc(I)cc21
QUANTITY_NAME: Fik Kinase %Inhibition
RESULT_VALUE: 11.3
//
STRUCTURE: O=C1Nc2ccc(S(=O)(=O)Nc3ccc(C(F)(F)F)cc3)cc2C1=Cc1cccn1-c1ccc(Cl)cc1
QUANTITY_NAME: Fik Kinase %Inhibition
RESULT_VALUE: 14.3
//
STRUCTURE: CNS(=O)(=O)c1ccc2c(c1)C(=Cc1ccc(N3CCN(C=O)CC3)cc1)C(=O)N2
QUANTITY_NAME: Fik Kinase %Inhibition
RESULT_VALUE: 2.6
//
STRUCTURE: COc1ccc(C=C2C(=O)Nc3ccc(Br)c(C)c32)c(OC)c1OC
QUANTITY_NAME: Fik Kinase %Inhibition
RESULT_VALUE: 48.8
//
STRUCTURE: O=C1Nc2ccc(I)cc2C1=Cc1cccc(Br)c1
QUANTITY_NAME: Fik Kinase %Inhibition
RESULT_VALUE: 5.8
//
STRUCTURE: CN1C(=O)C(=C2C(=O)Nc3ccc(I)cc32)c2ccccc21
QUANTITY_NAME: Fik Kinase %Inhibition
RESULT_VALUE: 1.3
//
STRUCTURE: O=C1Nc2ccc(CCCl)cc2C1=Cc1cccc([N+](=O)[O-])c1
QUANTITY_NAME: Fik Kinase %Inhibition
RESULT_VALUE: 9.7
//
STRUCTURE: Cc1c(Br)ccc2c1C(=Cc1cc(C(F)(F)F)ccc1F)C(=O)N2
QUANTITY_NAME: Fik Kinase %Inhibition
RESULT_VALUE: -2.2

---

- TARGET_OF_ASSAY: FLK-1 receptor (Mus musculus)
- Construct: expressed in transfected cells; host or cells: NIH3T3 C7#3
- TEST_NAME: FLK-1 ELISA (kinase activity of the FLK-1 receptor in FLK-1/NIH3T3 cells, VEGF stimulated)
- Assay type: cell-based
Please mark 1 if the recorded Fik Kinase %Inhibition is equal to or greater than 10%, and -1 if it falls below.

STRUCTURE: O=C1Nc2ccc(S(=O)(=O)Nc3ccc(C(F)(F)F)cc3)cc2C1=Cc1cccc([N+](=O)[O-])c1
QUALITATIVE_LABEL: 1
--
STRUCTURE: O=C1Nc2ccc(S(=O)(=O)N3CCOCC3)cc2C1=Cc1ccco1
QUALITATIVE_LABEL: 1
--
STRUCTURE: CNS(=O)(=O)c1ccc2c(c1)C(=C1C(=O)N(C)c3ccccc31)C(=O)N2
QUALITATIVE_LABEL: 1
--
STRUCTURE: Cc1cc(O)cc(O)c1C=C1C(=O)Nc2ccc(S(=O)(=O)N3CCOCC3)cc21
QUALITATIVE_LABEL: -1
--
STRUCTURE: O=C1Nc2ccc(S(=O)(=O)Nc3ccc(C(F)(F)F)cc3)cc2C1=Cc1sccc1Br
QUALITATIVE_LABEL: -1
--
STRUCTURE: COc1cccc(C=C2C(=O)Nc3ccc(S(=O)(=O)N4CCOCC4)cc32)c1OC
QUALITATIVE_LABEL: 1
--
STRUCTURE: CNS(=O)(=O)c1ccc2c(c1)C(=Cc1ccc(OC(C)=O)c(OC(C)=O)c1)C(=O)N2
QUALITATIVE_LABEL: -1
--
STRUCTURE: CCOc1ccccc1C=C1C(=O)Nc2ccc(Br)c(C)c21
QUALITATIVE_LABEL: -1

---

- TARGET_OF_ASSAY: PDGF-R (Homo sapiens, UniProt P09619)
- Sequence (P09619 33-1106, species assumed): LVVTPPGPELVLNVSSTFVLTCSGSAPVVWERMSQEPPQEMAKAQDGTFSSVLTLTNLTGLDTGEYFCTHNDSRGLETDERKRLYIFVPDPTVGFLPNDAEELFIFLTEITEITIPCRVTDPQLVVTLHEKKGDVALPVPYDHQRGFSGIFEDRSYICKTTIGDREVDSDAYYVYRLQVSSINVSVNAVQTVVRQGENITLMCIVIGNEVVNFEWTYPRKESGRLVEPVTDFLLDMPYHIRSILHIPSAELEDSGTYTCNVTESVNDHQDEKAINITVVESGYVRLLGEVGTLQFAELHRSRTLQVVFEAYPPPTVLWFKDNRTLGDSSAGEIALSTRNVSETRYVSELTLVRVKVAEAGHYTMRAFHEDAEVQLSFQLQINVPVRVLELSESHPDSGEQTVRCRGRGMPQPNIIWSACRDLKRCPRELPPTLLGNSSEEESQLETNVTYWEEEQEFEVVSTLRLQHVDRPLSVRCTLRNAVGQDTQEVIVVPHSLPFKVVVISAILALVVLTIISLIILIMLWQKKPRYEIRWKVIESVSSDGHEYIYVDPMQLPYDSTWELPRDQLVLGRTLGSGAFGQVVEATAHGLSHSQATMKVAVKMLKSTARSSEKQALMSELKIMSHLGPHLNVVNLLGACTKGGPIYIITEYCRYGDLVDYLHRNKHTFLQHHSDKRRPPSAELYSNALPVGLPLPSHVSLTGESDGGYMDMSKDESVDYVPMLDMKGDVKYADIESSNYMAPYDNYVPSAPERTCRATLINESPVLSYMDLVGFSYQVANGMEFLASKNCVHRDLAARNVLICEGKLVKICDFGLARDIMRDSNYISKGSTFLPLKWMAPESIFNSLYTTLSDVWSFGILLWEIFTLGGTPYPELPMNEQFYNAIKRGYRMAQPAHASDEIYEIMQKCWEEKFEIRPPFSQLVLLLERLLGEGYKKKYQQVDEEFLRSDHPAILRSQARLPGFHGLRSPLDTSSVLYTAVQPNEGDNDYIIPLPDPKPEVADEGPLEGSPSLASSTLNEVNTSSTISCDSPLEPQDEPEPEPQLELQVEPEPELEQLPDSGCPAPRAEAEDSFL
- TEST_NAME: PDGF-R ELISA
- Type: cell-based

STRUCTURE: O=C1Nc2ccc(CCCl)cc2C1=Cc1cc(Br)ccc1O
PDGF Kinase %Inhibition, %: -17.0

STRUCTURE: O=C1Nc2ccccc2C1=C1C(=O)Nc2ccc(S(=O)(=O)N3CCOCC3)cc21
PDGF Kinase %Inhibition, %: -2.6

STRUCTURE: COc1cc(C=C2C(=O)Nc3ccc(S(=O)(=O)Nc4ccc(C(F)(F)F)cc4)cc32)cc2c1OCO2
PDGF Kinase %Inhibition, %: 8.9

STRUCTURE: CCc1ccc(C=C2C(=O)Nc3ccc(Br)c(C)c32)o1
PDGF Kinase %Inhibition, %: 27.2

STRUCTURE: CNS(=O)(=O)c1ccc2c(c1)C(=C1C(=O)Nc3ccc(F)cc31)C(=O)N2
PDGF Kinase %Inhibition, %: 22.1

---

Reported PDGF Kinase %Inhibition is given for each of the following compounds.
- TARGET_OF_ASSAY: PDGF-R (Homo sapiens)
- TEST_NAME: PDGF-R ELISA
- Format: cell-based

STRUCTURE: CC(C)(C)c1cc(C=C2C(=O)Nc3ccc(I)cc32)cc(Cl)c1OCc1ccccc1
PDGF Kinase %Inhibition, %: 0.7
--
STRUCTURE: Cc1cc(C=C2C(=O)Nc3ccc(Br)c(C)c32)oc1C
PDGF Kinase %Inhibition, %: 16.4
--
STRUCTURE: COc1cc(N(C)C)ccc1C=C1C(=O)Nc2ccc(S(=O)(=O)Nc3ccc(C(F)(F)F)cc3)cc21
PDGF Kinase %Inhibition, %: 5.8
--
STRUCTURE: Cc1cc(C=C2C(=O)Nc3ccc(S(=O)(=O)N4CCOCC4)cc32)oc1C
PDGF Kinase %Inhibition, %: 4.5
--
STRUCTURE: O=C1Nc2c(Br)cc(Br)cc2C1=Cc1cc(O)c(O)c(Br)c1
PDGF Kinase %Inhibition, %: 13.1
--
STRUCTURE: O=C1Nc2ccc(F)cc2C1=C1C(=O)Nc2ccc(S(=O)(=O)N3CCOCC3)cc21
PDGF Kinase %Inhibition, %: 28.4
--
STRUCTURE: O=C1Nc2ccc(S(=O)(=O)Nc3ccc(C(F)(F)F)cc3)cc2C1=Cc1ccc(O)c(Br)c1
PDGF Kinase %Inhibition, %: 1.1
--
STRUCTURE: CNS(=O)(=O)c1ccc2c(c1)C(=Cc1c(O)cc(O)cc1O)C(=O)N2
PDGF Kinase %Inhibition, %: -9.4
--
STRUCTURE: Cc1c(Br)ccc2c1C(=Cc1ccc(OCc3ccccc3)c(C(C)(C)C)c1)C(=O)N2
PDGF Kinase %Inhibition, %: 5.3
--
STRUCTURE: COc1ccc(Br)c(C=C2C(=O)Nc3ccc(I)cc32)c1O
PDGF Kinase %Inhibition, %: 7.8
--
STRUCTURE: O=C1Nc2ccc(I)cc2C1=Cc1ccc([N+](=O)[O-])s1
PDGF Kinase %Inhibition, %: 3.1
--
STRUCTURE: CC(C)(C)c1cc(C=C2C(=O)Nc3ccc(CCCl)cc32)cc(Cl)c1O
PDGF Kinase %Inhibition, %: 12.9
--
STRUCTURE: O=C1Nc2ccc(CCCl)cc2C1=Cc1cc(C(F)(F)F)ccc1F
PDGF Kinase %Inhibition, %: -11.9
--
STRUCTURE: O=C1Nc2c(Br)cc(Br)cc2C1=Cc1ccc(-c2ccccc2Cl)o1
PDGF Kinase %Inhibition, %: -23.9
--
STRUCTURE: Cc1c(Br)ccc2c1C(=Cc1cc(Br)cc(Br)c1O)C(=O)N2
PDGF Kinase %Inhibition, %: 32.0
--
STRUCTURE: CCN(CC)c1ccc(C=C2C(=O)Nc3ccc(CCCl)cc32)cc1
PDGF Kinase %Inhibition, %: -20.5
--
STRUCTURE: Cc1cc(C=C2C(=O)Nc3ccc(Br)c(C)c32)cc(C)c1OCc1ccccc1
PDGF Kinase %Inhibition, %: 4.6
--
STRUCTURE: COc1cc(C=C2C(=O)Nc3ccc(S(=O)(=O)Nc4ccc(C(F)(F)F)cc4)cc32)cc(OC)c1OC
PDGF Kinase %Inhibition, %: 18.6
--
STRUCTURE: CC(C)(C)c1cc(C=C2C(=O)Nc3ccc(S(=O)(=O)Nc4ccc(C(F)(F)F)cc4)cc32)cc(Br)c1OCc1ccccc1
PDGF Kinase %Inhibition, %: 32.6
--
STRUCTURE: Cc1c(Br)ccc2c1C(=Cc1ccccc1Br)C(=O)N2
PDGF Kinase %Inhibition, %: 27.6
--
STRUCTURE: O=C1Nc2ccc(I)cc2C1=Cc1ccc(C(=O)O)cc1
PDGF Kinase %Inhibition, %: 21.5
--
STRUCTURE: O=C1Nc2c(Br)cc(Br)cc2C1=Cc1ccc(C(=O)O)cc1
PDGF Kinase %Inhibition, %: 33.5
--
STRUCTURE: COC(=O)Cc1c(Cl)[nH]c(C=C2C(=O)Nc3ccc(S(=O)(=O)Nc4ccc(C(F)(F)F)cc4)cc32)c1C(=O)OC
PDGF Kinase %Inhibition, %: 37.5
--
STRUCTURE: CCn1c2ccccc2c2cc(C=C3C(=O)Nc4ccc(S(=O)(=O)Nc5ccc(C(F)(F)F)cc5)cc43)ccc21
PDGF Kinase %Inhibition, %: 13.7
--
STRUCTURE: O=C1Nc2ccc(I)cc2C1=Cc1ccccc1Br
PDGF Kinase %Inhibition, %: 24.9
--
STRUCTURE: Cc1ccsc1C=C1C(=O)Nc2ccc(Br)c(C)c21
PDGF Kinase %Inhibition, %: -5.6
--
STRUCTURE: Cc1ccsc1C=C1C(=O)Nc2c(Br)cc(Br)cc21
PDGF Kinase %Inhibition, %: -6.8
--
STRUCTURE: O=C1Nc2c(Br)cc(Br)cc2C1=Cc1coc2ccccc2c1=O
PDGF Kinase %Inhibition, %: 12.3
--
STRUCTURE: CCOc1cccc(C=C2C(=O)Nc3c(Br)cc(Br)cc32)c1O
PDGF Kinase %Inhibition, %: -3.8
--
STRUCTURE: Cc1ccc2occ(C=C3C(=O)Nc4ccc(I)cc43)c(=O)c2c1
PDGF Kinase %Inhibition, %: 5.6
--
STRUCTURE: Cc1ccc2occ(C=C3C(=O)Nc4c(Br)cc(Br)cc43)c(=O)c2c1
PDGF Kinase %Inhibition, %: 1.3
--
STRUCTURE: CNS(=O)(=O)c1ccc2c(c1)C(=Cc1c(Br)ccc(OC)c1O)C(=O)N2
PDGF Kinase %Inhibition, %: 5.4
--
STRUCTURE: O=C1Nc2ccc(S(=O)(=O)Nc3ccc(C(F)(F)F)cc3)cc2C1=Cc1cccc(Oc2ccccc2)c1
PDGF Kinase %Inhibition, %: 24.7
--
STRUCTURE: CNS(=O)(=O)c1ccc2c(c1)C(=Cc1cccc(OC)c1OC)C(=O)N2
PDGF Kinase %Inhibition, %: 17.4
--
STRUCTURE: CNS(=O)(=O)c1ccc2c(c1)C(=Cc1ccc(N3CCCC3)cc1)C(=O)N2
PDGF Kinase %Inhibition, %: -11.3
